// reported Emax at 1 µM per item
systemTested: PKCδ-GFP fusion protein (Homo sapiens, UniProt Q05655)
Construct: expressed in transfected cells; host or cells: CHO-k1 (Chinese hamster ovary, ATCC)
Sequence (Q05655 whole entry, the tested form may be a part): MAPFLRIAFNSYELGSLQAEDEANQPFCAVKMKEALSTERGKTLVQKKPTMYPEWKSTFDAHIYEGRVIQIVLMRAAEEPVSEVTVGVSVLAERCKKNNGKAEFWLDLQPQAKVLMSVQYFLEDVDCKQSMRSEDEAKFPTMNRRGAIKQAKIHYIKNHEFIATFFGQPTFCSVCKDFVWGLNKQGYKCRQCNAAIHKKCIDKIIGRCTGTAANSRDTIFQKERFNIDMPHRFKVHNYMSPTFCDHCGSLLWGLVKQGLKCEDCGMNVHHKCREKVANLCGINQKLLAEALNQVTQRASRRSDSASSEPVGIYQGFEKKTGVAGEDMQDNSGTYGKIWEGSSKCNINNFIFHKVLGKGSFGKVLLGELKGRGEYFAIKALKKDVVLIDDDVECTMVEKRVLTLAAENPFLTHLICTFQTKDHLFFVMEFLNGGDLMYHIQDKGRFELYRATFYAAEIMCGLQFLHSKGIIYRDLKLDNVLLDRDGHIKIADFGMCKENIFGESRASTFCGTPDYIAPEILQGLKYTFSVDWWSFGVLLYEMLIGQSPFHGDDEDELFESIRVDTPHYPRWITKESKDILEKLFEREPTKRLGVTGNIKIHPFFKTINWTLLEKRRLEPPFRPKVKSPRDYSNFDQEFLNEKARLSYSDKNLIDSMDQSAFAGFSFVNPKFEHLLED
protocolNotes: PKCδ-GFP translocation assay in living CHO-k1 cells (confocal microscopy)
Type: cell-based, Chinese hamster
condition: CHO-K1, 1000 nM compound; CHO-k1 cells; n = 3; read-out: % Translocation (maximum translocation of PKCδ-GFP to the plasma membrane)
// return numeric value only (unit: %, not printed)

Reference set (2 entries):
# compound, Emax at 1 µM / %
records = [
    ("CCCC=CC=CC(=O)OC1C(=CC(=O)OC)CC2CC(C(C)O)OC(=O)CC(O)CC3CC(OC(C)=O)C(C)(C)C(O)(CC4CC(=CC(=O)OCc5ccccc5)CC(C=CC(C)(C)C1(O)O2)O4)O3 (stereo not drawn) [SUW219]", 60),
    ("CCCC=CC=CC(=O)OC1C(=CC(=O)OC)CC2CC(C(C)O)OC(=O)CC(O)CC3CC(OC(C)=O)C(C)(C)C(O)(CC4CC(OC(=O)CCc5c[nH]c6ccccc56)CC(C=CC(C)(C)C1(O)O2)O4)O3 (stereo not drawn) [SUW210]", 75),
]

// Emax at 1 µM value for CCCC=CC=CC(=O)OC1C(=CC(=O)OC)CC2CC(C(C)O)OC(=O)CC(O)CC3CC(OC(C)=O)C(C)(C)C(O)(CC4CC(OC(=O)CCC(=O)O)CC(C=CC(C)(C)C1(O)O2)O4)O3 (stereo not drawn) [SUW211] : 20

Emax at 1 µM in this record for CCCC=CC=CC(=O)OC1C(=CC(=O)OC)CC2CC(C(C)O)OC(=O)CC(O)CC3CC(OC(C)=O)C(C)(C)C(O)(CC4CC(OC(=O)CC56CC7CC(CC(C7)C5)C6)CC(C=CC(C)(C)C1(O)O2)O4)O3 (stereo not drawn) [SUW209] : 60

Per the records, this compound ( CCCC=CC=CC(=O)OC1C(=CC(=O)OC)CC2CC(C(C)O)OC(=O)CC(O)CC3CC(OC(C)=O)C(C)(C)C(O)(CC4CC(OC(=O)CN(C)C)CC(C=CC(C)(C)C1(O)O2)O4)O3 (stereo not drawn) [SUW212] ) has Emax at 1 µM equal to 50

All values here come from paper PMC7170889.
